test system: cellular dehydrogenase activity; details: composite Z-score vs mock-treated (DMSO) wells; concentration of each compound in μM
Friendly reminder: MTT below -1 is yes, at or above is no.

Would you please look over these solved cases?
>>> label("CC[C@H](C)[C@H](N)C(=O)N1CCC[C@H]1C(=O)N[C@H](C(=O)O)[C@@H](C)CC")
"yes"
>>> label("CN1Cc2c(ccc3c2OCO3)[C@@H]2[C@H]1c1cc3c(cc1C[C@@H]2O)OCO3 [(+)-chelidonine]")
"yes"
>>> label("CN[C@H]1C[C@@H](N)[C@H](O)[C@@H](O[C@@H]2O[C@H](CO)[C@H](O)[C@@H]3OC4(O[C@H]23)O[C@H]([C@@H](N)CO)[C@H](O)[C@H](O)[C@H]4O)[C@@H]1O (stereo partly drawn)")
"yes"

Request: Field: below-cutoff. Rule: recorded MTT strictly less than -1. Subject: CC(=O)O.CSC(=N)NCCC[C@H](N)C(=O)O [S-methyl-L-thiocitrulline acetate]
Result: no

Request: Field: below-cutoff. Rule: recorded MTT strictly less than -1. Subject: O=C(O)CCC/C=C\CC1COC(C(F)(F)F)OC1c1ccccc1O (stereo not drawn)
Result: no

src = patent US20090143279A1
